target system: Na^+ /H^+ exchange transport (rat platelets) (Rattus norvegicus)
Construct: the thus collected supernatant was used as platelet rich plasma; endogenous in cells
Sequence (P26431 whole entry): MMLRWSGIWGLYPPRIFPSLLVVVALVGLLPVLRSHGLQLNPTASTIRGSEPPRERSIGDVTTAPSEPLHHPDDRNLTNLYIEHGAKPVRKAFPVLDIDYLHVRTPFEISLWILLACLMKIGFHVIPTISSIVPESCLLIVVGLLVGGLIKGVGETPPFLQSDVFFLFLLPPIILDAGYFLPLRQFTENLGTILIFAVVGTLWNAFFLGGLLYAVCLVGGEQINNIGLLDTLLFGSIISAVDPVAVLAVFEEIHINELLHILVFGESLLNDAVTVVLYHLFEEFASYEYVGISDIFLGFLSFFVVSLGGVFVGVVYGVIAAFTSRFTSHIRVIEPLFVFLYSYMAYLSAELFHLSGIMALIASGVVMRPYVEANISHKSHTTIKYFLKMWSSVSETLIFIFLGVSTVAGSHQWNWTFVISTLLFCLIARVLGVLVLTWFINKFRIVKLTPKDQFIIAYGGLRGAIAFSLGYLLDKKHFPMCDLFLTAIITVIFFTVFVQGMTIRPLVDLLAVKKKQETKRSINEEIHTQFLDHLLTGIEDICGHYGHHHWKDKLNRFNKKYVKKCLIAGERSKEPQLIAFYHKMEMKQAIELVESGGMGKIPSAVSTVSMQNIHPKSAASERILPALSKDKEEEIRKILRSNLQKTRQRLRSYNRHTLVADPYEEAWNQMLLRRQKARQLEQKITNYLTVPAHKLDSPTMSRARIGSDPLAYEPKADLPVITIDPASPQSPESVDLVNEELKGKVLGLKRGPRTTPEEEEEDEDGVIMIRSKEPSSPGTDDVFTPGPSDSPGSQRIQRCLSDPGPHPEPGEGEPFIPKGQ
test description: Inhibition studies on Na^+ /H^+ exchange transport: swelling of rat platelets induced by sodium propionate
condition context: rat platelet swelling, sodium propionate buffer pH 6.7, 20 seconds; 300 μM amiloride = 100% inhibition; read-out: IC5O value (inhibitory actions of test compounds on Na^+ /H^+ exchange transport)
quantity: IC50

# compound, IC50
data = [
    ("NC(N)=NC(=O)c1cc2c(nc1-c1cccnc1)CCCCC2 [Compound J]", "≥ 1000 nM"),
]

Asked: State its IC50 for this compound: Cc1nc2c(cc1C(=O)N=C(N)N)C(O)CCCC2 (centres unmarked) [Compound D]
Given back: 100 to 990 nM

Asked: State its IC50 for this compound: Cc1nc2c(cc1C(=O)N=C(N)N)CCCCC2C (centres unmarked) [Compound E]
Given back: ≤ 99 nM

* * *

target system: Na^+ /H^+ exchange transport (rat platelets) (Rattus norvegicus)
Construct: the thus collected supernatant was used as platelet rich plasma; endogenous in cells
test description: Inhibition studies on Na^+ /H^+ exchange transport: swelling of rat platelets induced by sodium propionate
condition context: rat platelet swelling, sodium propionate buffer pH 6.7, 20 seconds; 300 μM amiloride = 100% inhibition; read-out: IC5O value (inhibitory actions of test compounds on Na^+ /H^+ exchange transport)
Measured IC50 values are reported for all entries that follow.

# compound, IC50
rows = [
    ("Cc1nc2c(cc1C(=O)N=C(N)N)CC(C)CC2 (centres unmarked) [Compound B]", "≤ 99 nM"),
    ("NC(N)=NC(=O)c1cc2c(nc1C(F)(F)F)CCCCC2 [Compound G]", "100 to 990 nM"),
    ("NC(N)=NC(=O)c1cc2c(nc1Cl)CCCCC2 [Compound H]", "≤ 99 nM"),
    ("COc1nc2c(cc1C(=O)N=C(N)N)CCCCC2 [Compound I]", "≥ 1000 nM"),
    ("COC1CCCCc2cc(C(=O)N=C(N)N)c(C)nc21 (centres unmarked) [Compound F]", "≤ 99 nM"),
]

Asked: Determine reported IC50 for CCc1nc2c(cc1C(=O)N=C(N)N)CCCCC2 [Compound C] ; test system: Na^+ /H^+ exchange transport (rat platelets) (Rattus norvegicus).
Given back: ≤ 99 nM

Asked: Determine reported IC50 for Cc1nc2c(cc1C(=O)N=C(N)N)CCCC=C2 [Compound K] ; test system: Na^+ /H^+ exchange transport (rat platelets) (Rattus norvegicus).
Given back: ≤ 99 nM

Asked: Determine reported IC50 for Cc1nc2c(cc1C(=O)N=C(N)N)CCCC2O (centres unmarked) [Compound A] ; test system: Na^+ /H^+ exchange transport (rat platelets) (Rattus norvegicus).
Given back: 100 to 990 nM

This collection of values is drawn from patent US6258829A.
